measured on: full-length human PHD1 (Homo sapiens)
Sequence (Q96KS0 whole entry): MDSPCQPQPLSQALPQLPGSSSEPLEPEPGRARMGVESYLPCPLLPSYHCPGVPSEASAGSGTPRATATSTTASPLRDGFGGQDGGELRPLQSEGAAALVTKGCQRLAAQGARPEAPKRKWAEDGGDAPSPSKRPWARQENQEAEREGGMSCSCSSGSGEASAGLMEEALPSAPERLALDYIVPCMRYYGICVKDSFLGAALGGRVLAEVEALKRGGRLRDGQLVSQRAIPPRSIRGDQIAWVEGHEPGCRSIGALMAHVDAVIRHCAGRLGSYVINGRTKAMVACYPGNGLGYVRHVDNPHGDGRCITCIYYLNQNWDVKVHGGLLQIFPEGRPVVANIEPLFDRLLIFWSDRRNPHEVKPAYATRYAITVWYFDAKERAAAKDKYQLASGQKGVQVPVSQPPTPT
pIC50: −log10 of the molar value.
measurement type: pIC50

Cc1nn(-c2ccc(C(=O)O)cn2)c(O)c1-c1ccc(Cl)c(C#N)c1 [Compound 42] | > 7.00

Give the measured pIC50 of N#Cc1ccc(-c2cnn(-c3ccc(C(=O)O)cn3)c2O)c(O)c1 [Compound 21] .
> 7.00

I am curious: what pIC50 value has been reported for CC(C)(C)OC(=O)c1ccc(-n2ncc(-c3ccc(C#N)cc3)c2O)nc1 [Compound 38] ?
> 7.00

# query: pIC50 of entry Cc1cc(C#N)ccc1-c1c(C)nn(-c2ccc(C(=O)O)cn2)c1O [Compound 24]
> 7.00
